- target-or-system: GPR3 (Homo sapiens)
- Construct: expressed in transfected cells; host or cells: CHO cells
- Sequence (P46089 whole entry, species assumed): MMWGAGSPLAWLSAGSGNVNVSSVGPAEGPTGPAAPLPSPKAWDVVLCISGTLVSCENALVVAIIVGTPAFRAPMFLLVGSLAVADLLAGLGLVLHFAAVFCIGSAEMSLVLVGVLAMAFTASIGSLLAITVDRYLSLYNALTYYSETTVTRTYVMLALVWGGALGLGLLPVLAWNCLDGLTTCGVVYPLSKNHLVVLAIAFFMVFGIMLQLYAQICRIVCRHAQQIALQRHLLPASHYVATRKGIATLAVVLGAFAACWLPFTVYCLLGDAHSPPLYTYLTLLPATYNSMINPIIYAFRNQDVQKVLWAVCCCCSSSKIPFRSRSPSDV
- experiment: GPR3 antagonist functional cAMP assay (LANCE Ultra cAMP TR-FRET, CHO cells stably expressing GPR3)
- Assay type: cell-based
- experimental-conditions: procedure of Example 24
Overview of recorded IC50 for various compounds

compound | target-or-system | IC50
CC(=O)N1CCc2nc(N3CCC(COc4ccccc4F)C3)c(-c3cnn(C)c3)nc2C1 (centres unmarked) [Compound 323] | GPR3 (Homo sapiens) | 1000 to 30000 nM
CC(C)(O)C(C)(O)c1cc2nc(N3CCC(Oc4ccc(F)cc4F)CC3)c(-c3cnn(C4CC4)c3)nc2cn1 (centres unmarked) [Compound 632] | GPR3 (Homo sapiens) | 1000 to 30000 nM
CCn1cc(-c2nc3cnc([C@](C)(O)C(C)(C)O)cc3nc2N2CCC(Oc3ccc(F)cc3F)CC2)cn1 (single isomer, unassigned) [Compound 735] | GPR3 (Homo sapiens) | 1000 to 30000 nM

[ask] Consider the compound CC(=O)N1CCc2nc(N3CCC(Oc4ccc(F)cc4F)CC3)c(C3CCC(O)CC3)nc2C1 (centres unmarked) [Compound 374] and give its measured IC50.
[reply] 1000 to 30000 nM

[ask] Consider the compound CC(=O)N1CCc2nc(N3CCN(C(=O)c4ccc(F)cc4C#N)CC3)c(-c3cnn(C)c3)nc2C1 [Compound 286] and give its measured IC50.
[reply] ≥ 30000 nM

[ask] Consider the compound CC(C)(O)[C@H](O)c1cc2nc(N3CCC(=Cc4ccc(F)cc4F)CC3)c(-c3cnn(CF)c3)nc2cn1 (single isomer, unassigned) [Compound 784] and give its measured IC50.
[reply] 1000 to 30000 nM

[ask] Consider the compound CC(C)(O)[C@@](C)(O)c1cc2nc(-c3cnn(CF)c3)c(N3CCN(Cc4ccc(F)cc4F)CC3)nc2cn1 (single isomer, unassigned) [Compound 711] and give its measured IC50.
[reply] 1000 to 30000 nM
